The following compounds are listed with their measured SpCas9 eGFP disruption Rep1 values.
molecular target: SpCas9 (Streptococcus pyogenes serotype M1, UniProt Q99ZW2); test: eGFP disruption assay, SpCas9, U2OS.eGFP.PEST cells; assay type: cell-based; details: replicate 1, raw readout
Sequence (Q99ZW2 whole entry): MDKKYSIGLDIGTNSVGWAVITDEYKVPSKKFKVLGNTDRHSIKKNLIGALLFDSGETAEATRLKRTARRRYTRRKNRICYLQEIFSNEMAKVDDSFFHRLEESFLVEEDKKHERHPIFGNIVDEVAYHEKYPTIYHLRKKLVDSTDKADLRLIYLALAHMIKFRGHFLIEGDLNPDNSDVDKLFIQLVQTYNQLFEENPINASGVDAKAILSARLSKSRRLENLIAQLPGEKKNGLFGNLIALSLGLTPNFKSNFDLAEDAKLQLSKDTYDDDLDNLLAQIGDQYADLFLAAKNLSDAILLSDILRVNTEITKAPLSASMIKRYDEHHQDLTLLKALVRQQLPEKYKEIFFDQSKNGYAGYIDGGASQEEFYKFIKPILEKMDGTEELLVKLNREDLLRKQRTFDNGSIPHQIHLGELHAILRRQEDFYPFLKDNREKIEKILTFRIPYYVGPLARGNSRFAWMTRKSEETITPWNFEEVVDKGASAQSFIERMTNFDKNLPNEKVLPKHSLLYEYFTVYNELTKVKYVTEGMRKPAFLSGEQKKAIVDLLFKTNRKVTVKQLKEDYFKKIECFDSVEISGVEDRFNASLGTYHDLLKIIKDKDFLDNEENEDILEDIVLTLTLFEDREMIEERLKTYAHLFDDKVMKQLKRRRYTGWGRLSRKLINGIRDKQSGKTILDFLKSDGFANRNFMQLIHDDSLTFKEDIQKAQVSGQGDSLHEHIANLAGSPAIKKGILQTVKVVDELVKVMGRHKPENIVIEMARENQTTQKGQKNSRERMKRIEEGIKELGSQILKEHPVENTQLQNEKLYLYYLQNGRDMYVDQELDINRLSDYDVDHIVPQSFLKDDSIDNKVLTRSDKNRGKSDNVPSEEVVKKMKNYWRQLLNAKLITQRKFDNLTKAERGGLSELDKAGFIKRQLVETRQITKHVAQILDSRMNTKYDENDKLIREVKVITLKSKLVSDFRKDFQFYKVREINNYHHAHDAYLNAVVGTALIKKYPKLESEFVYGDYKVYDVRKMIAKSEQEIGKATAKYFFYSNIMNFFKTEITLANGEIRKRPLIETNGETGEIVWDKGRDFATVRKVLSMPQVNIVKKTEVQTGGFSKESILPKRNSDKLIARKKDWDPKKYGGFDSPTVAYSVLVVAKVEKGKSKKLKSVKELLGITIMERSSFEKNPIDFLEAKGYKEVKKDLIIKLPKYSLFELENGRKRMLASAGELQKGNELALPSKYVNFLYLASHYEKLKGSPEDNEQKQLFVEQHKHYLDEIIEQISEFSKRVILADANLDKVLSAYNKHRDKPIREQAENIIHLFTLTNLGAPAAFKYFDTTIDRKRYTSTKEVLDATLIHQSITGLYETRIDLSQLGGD
Value Kind: SpCas9 eGFP disruption Rep1

| Compound | Observed Result |
| --- | --- |
| Nc1c(C(=O)NCC2CCCO2)sc(=S)n1-c1ccc(Cl)cc1 (centres unmarked) [Compound F128-0076] | 65.12 |
| CN(C)c1cccc(-c2nn3c(-c4ccc5ccccc5c4)nnc3s2)c1 [Compound D727-0754] | 63.517 |
| Fc1ccc(OCc2nn3c(-c4ccccn4)nnc3s2)cc1 [Compound D727-0525] | 55.263 |
| NC(=O)c1sc(=S)n2c1[nH]c(=O)c1ccc(Cl)cc12 [Compound F083-0067] | 64.842 |
| CS(=O)(=O)Nc1cnc(N2CCC(CCN3CCOCC3)CC2)c(C(=O)O)c1 [Compound F293-0898] | 56.403 |
| O=C(O)c1ccc(N2CCN(c3ccccn3)CC2)c(NC(=O)c2ccc(Br)cc2)c1 [Compound F086-0619] | 64.289 |
| Cc1nc2ccccc2n1Cc1nnc2sc(-c3cccnc3)nn12 [Compound D727-0182] | 56.36 |
| Nc1c(C(=O)N2CCCCC2)sc(=S)n1Cc1ccccc1 [Compound F128-0042] | 61.817 |

---

The following compounds are listed with their measured SpCas9 eGFP disruption Rep2 values.
biological target: SpCas9 (Streptococcus pyogenes serotype M1); assay: eGFP disruption assay, SpCas9, U2OS.eGFP.PEST cells; format: cell-based; conditions: replicate 2, raw readout; Cas9 = lower control, Ctrl = upper control
Value Kind: SpCas9 eGFP disruption Rep2

| Molecule | Observed Result |
| --- | --- |
| Cc1nn(-c2ccccc2)c(C)c1CCc1nnc2sc(-c3ccccc3F)nn12 | 66.347 |
| COc1ccc(OC)c(CNC(=O)c2ccc(Oc3ccnc(-c4cccc(F)c4)n3)cc2)c1 | 78.814 |
| CCN1C(=O)c2cccc3cccc1c23 | 66.588 |
| COc1ccc(CNC(=O)c2ccc(Oc3ccnc(-c4cccc(F)c4)n3)cc2)c(OC)c1 | 79.829 |
| O=C(CCS(=O)(=O)c1ccc(Cl)cc1)Nc1nc(-c2ccccn2)cs1 | 79.939 |
| CCOC(=O)C1=C(C)NN=C(Nc2cccc(C)c2C)S1 | 59.8 |
| O=C(CCS(=O)(=O)c1ccccc1)Nc1nc(-c2ccncc2)cs1 | 83.951 |
| O=C(CCS(=O)(=O)c1ccc(Cl)cc1)Nc1nc(-c2ccncc2)cs1 | 86.243 |

---

biological target: SpCas9 (Streptococcus pyogenes serotype M1); assay: Strand displacement assay (SDA) / cumulative activity assay (CAA), SpCas9 primary screen; type: biochemical; conditions: Primary Screen (150 min); replicate 1

| Compound | Normalized Z score 1 |
| --- | --- |
| CCN1C(=O)c2cccc3cccc1c23 [Compound T0503-6911] | 0.06 |
| COc1ccc(C(=O)Oc2cc(-c3ccc(OC)c(OC)c3)cc(=O)c3c(C)oc(C)c23)cc1 [Compound D132-0053] | 0.21 |
| N=C1N=CC(=NNc2cc(C(=O)O)ccc2Cl)S1 [Compound T5253378] | 0.08 |
| COc1ccc(-n2c(N(C(C)=O)C(C)=O)c(C#N)c3nc4ccccc4nc32)cc1 [Compound T0503-6223] | 0.16 |

---

molecular target: SpCas9 (Streptococcus pyogenes serotype M1); experiment: eGFP disruption assay, SpCas9, U2OS.eGFP.PEST cells; format: cell-based
Returns YES if the recorded eGFP disruption-% inhibition is greater than or equal to 30%, and NO otherwise.

| Molecule | Assay Target | Label Class |
| --- | --- | --- |
| CCN1C(=O)c2cccc3cccc1c23 | SpCas9 (Streptococcus pyogenes serotype M1) | NO |
| Cc1ccccc1C(=O)Nc1nc2ccc(S(N)(=O)=O)cc2s1 | SpCas9 (Streptococcus pyogenes serotype M1) | YES |
| NC1=C(c2nc3ccccc3s2)C(=O)CN1N=Cc1ccc(-c2ccc(S(=O)(=O)Nc3ncccn3)cc2)o1 | SpCas9 (Streptococcus pyogenes serotype M1) | NO |
| O=C(CCS(=O)(=O)c1ccc(Cl)cc1)Nc1nc(-c2ccccn2)cs1 | SpCas9 (Streptococcus pyogenes serotype M1) | YES |
| O=C(CCS(=O)(=O)c1ccccc1)Nc1nc(-c2ccncc2)cs1 | SpCas9 (Streptococcus pyogenes serotype M1) | YES |
| O=C(CSc1nccn1-c1cccc(F)c1)N1CCN(c2ccc(O)cc2)CC1 | SpCas9 (Streptococcus pyogenes serotype M1) | NO |

---

target: SpCas9 (Streptococcus pyogenes serotype M1); assay: eGFP disruption assay, SpCas9, U2OS.eGFP.PEST cells; format: cell-based; details: replicate 2
The following compounds are listed with their measured Normalized Z rep2 values.

| Compound | Normalized Z rep2 |
| --- | --- |
| Cc1ccc(-c2nc(CN3CCCC(C(=O)Nc4cc(C)ccc4O)C3)no2)cc1 (centres unmarked) [Compound J065-2258] | −0.06 |
| c1ccc(Cc2nn3c(-c4cccnc4)nnc3s2)cc1 [Compound D727-0066] | −0.15 |
| N#Cc1[nH]c(=O)n(Cc2ccccc2)c1N [Cpd10] | 0.14 |
| Cc1nc2ccccc2n1Cc1nnc2n1N=C(N)CS2 [Compound D727-0339] | −0.15 |
| Cc1ccc(-c2nn3c(-c4cccnc4)nnc3s2)cc1 [Compound D727-0047] | −0.29 |

---

target: SpCas9 (Streptococcus pyogenes serotype M1, UniProt Q99ZW2); assay: eGFP disruption assay, SpCas9, U2OS.eGFP.PEST cells; format: cell-based; settings: replicate 2; normalized, lower control about 0, upper control about 1

| Molecule | Normalized Z rep2 |
| --- | --- |
| O=C(CCS(=O)(=O)c1ccc(Cl)cc1)Nc1nc(-c2ccncc2)cs1 | 0.54 |
| CCn1c(CCC(=O)O)nc2cc(S(N)(=O)=O)ccc21 | 0.19 |
| CCN1C(=O)c2cccc3cccc1c23 | 0.29 |

---

molecular target: SpCas9 (Streptococcus pyogenes serotype M1, UniProt Q99ZW2); assay: Strand displacement assay (SDA) / cumulative activity assay (CAA), SpCas9 primary screen; type: biochemical; conditions: Primary Screen (150 min); replicate 1

| Compound | Assay Target | Normalized Z score 1 |
| --- | --- | --- |
| O=C(N/N=C/c1ccc(O)c(O)c1O)c1cccc(S(=O)(=O)Nc2ccccc2Cl)c1 | SpCas9 (Streptococcus pyogenes serotype M1, UniProt Q99ZW2) | 0.07 |
| COc1ccc(-c2cc(N3CCN(C(=O)c4ccc(C(C)(C)C)cc4)CC3)ncn2)cc1 | SpCas9 (Streptococcus pyogenes serotype M1, UniProt Q99ZW2) | 0.28 |
| CCOC(=O)C1CCCN(Cn2nnn(-c3ccc(OC)cc3)c2=S)C1 (stereo not shown) | SpCas9 (Streptococcus pyogenes serotype M1, UniProt Q99ZW2) | 0.04 |
| CCc1ccc(NC(=O)C(C#N)=Cc2cc(C#N)n(C)c2C)cc1 | SpCas9 (Streptococcus pyogenes serotype M1, UniProt Q99ZW2) | 0.06 |

---

Target: SaCas9 (Staphylococcus aureus, UniProt J7RUA5)
Sequence (J7RUA5 whole entry): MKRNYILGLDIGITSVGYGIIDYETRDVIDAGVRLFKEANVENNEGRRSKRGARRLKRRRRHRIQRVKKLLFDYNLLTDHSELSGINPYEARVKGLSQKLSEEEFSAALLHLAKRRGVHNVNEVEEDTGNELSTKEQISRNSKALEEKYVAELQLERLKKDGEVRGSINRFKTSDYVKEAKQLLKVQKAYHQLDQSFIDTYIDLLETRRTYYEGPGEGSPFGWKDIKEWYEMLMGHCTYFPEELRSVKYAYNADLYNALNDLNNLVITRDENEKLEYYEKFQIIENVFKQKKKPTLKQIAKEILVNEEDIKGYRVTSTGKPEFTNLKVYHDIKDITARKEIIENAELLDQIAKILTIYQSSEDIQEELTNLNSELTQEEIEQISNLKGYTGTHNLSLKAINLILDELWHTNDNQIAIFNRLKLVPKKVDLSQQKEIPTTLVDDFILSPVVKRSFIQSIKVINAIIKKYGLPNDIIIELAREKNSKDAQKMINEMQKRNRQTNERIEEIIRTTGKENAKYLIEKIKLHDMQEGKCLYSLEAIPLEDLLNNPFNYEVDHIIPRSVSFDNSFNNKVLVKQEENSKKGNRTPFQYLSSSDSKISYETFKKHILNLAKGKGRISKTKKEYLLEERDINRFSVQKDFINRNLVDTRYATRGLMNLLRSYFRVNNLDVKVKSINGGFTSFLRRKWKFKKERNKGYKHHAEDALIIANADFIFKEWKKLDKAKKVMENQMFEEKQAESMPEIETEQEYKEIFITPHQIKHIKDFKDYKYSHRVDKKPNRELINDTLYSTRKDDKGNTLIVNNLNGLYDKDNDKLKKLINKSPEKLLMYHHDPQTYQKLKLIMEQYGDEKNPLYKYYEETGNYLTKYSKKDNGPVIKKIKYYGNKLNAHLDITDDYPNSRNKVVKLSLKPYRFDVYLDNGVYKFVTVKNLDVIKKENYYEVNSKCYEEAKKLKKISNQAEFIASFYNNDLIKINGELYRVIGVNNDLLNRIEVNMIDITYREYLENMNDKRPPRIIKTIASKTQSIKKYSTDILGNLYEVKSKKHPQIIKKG
Assay: eGFP secondary assay, SaCas9
Assay type: cell-based
Details: replicate 1, % eGFP disruption
Protocol: All hit compounds were moved forward into the secondary and tertiary screens, in which they were tested in cell-based assays. An eGFP assay is used to determine hits in cells as the secondary screen (eGFP assay). The eGFP secondary assay evaluated the hits identified from the primary screen. The compounds were judged off the % eGFP disruption to determine the Cas9 inhibition and the assay Zscore. […]
Please use the following Normalized eGFP Disruption Rep 1 ranges when assigning a class: low: < 60; mid: ≥ 60 and < 70; high: ≥ 70

| Compound | Assay Target | Label Class |
| --- | --- | --- |
| CC(C)Cc1nnc2sc(-c3c[nH]c4ccccc34)nn12 [D727-0768] | SaCas9 (Staphylococcus aureus, UniProt J7RUA5) | high |
| Cc1nn(-c2ccccc2)c(C)c1CCc1nnc2sc(-c3ccc(N(C)C)cc3)nn12 [D727-0717] | SaCas9 (Staphylococcus aureus, UniProt J7RUA5) | mid |
| Cc1cc(-c2nn3c(-c4cccc(F)c4)nnc3s2)c2ccccc2n1 [D727-0417] | SaCas9 (Staphylococcus aureus, UniProt J7RUA5) | mid |
| O=c1oc2c(O)c(O)ccc2c2c1CCCC2 [D715-2438] | SaCas9 (Staphylococcus aureus, UniProt J7RUA5) | high |
| CC(=O)Nc1ccc(C(=O)Nc2ccc(CCc3nc4ccccc4n3-c3ccccc3)cc2)cc1 [F255-0057] | SaCas9 (Staphylococcus aureus, UniProt J7RUA5) | low |
| COc1cccc(N2C(=O)c3cc4ccccc4n3CC2(C)C(=O)NC2CCCCC2)c1 (stereo not shown) [E234-0006] | SaCas9 (Staphylococcus aureus, UniProt J7RUA5) | low |
| COc1ccccc1-c1nn2c(-c3cccnc3)nnc2s1 [D727-0059] | SaCas9 (Staphylococcus aureus, UniProt J7RUA5) | high |
| O=C(NCCCN1CCC(N2CCCCC2)CC1)C1=Cc2sc3c(c2CS1)CCCC3 [E722-2652] | SaCas9 (Staphylococcus aureus, UniProt J7RUA5) | low |
| CCCCN(CC)C(=O)C1CCCN(c2ccc(-c3ccccc3)nn2)C1 (stereo not shown) [Compound F305-0030] | SaCas9 (Staphylococcus aureus, UniProt J7RUA5) | low |
| CCCCn1nnnc1NCc1ccc2c(c1)n(C)c(=O)n2C [Compound D664-0047] | SaCas9 (Staphylococcus aureus, UniProt J7RUA5) | high |
| Cc1cc(=O)c2cc(C(=O)Nc3ccc(F)cc3)ccc2[nH]1 [D421-0876] | SaCas9 (Staphylococcus aureus, UniProt J7RUA5) | mid |
| Cc1nc2nc(N(CCOc3ccccc3)S(=O)(=O)c3ccccc3)nn2c(C)c1Cl [D513-3628] | SaCas9 (Staphylococcus aureus, UniProt J7RUA5) | low |
| Cc1occc1-c1nnc2sc(-c3c[nH]c4ccccc34)nn12 [Compound D727-0786] | SaCas9 (Staphylococcus aureus, UniProt J7RUA5) | low |
| Cc1ccc(-n2ncc(C(=O)Nc3ccc(Br)cc3)c2C2CCNCC2)cc1 [Compound E922-0258] | SaCas9 (Staphylococcus aureus, UniProt J7RUA5) | low |
